FYI, the data here is from ChEMBL document CHEMBL1130452.

# Test system: Plasma kallikrein (Homo sapiens)
# Sequence (P03952 20-390 limits assumed): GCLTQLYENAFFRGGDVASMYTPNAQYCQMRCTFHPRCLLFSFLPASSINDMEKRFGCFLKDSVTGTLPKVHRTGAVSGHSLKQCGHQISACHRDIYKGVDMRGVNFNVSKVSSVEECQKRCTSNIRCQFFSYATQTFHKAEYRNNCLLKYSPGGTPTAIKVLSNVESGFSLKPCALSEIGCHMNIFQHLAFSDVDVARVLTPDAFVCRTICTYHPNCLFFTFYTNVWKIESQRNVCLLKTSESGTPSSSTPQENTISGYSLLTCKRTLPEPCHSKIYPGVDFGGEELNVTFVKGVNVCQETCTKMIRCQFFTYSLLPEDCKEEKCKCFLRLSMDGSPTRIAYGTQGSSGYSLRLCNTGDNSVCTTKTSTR
# Sequence (P03952 391-638 limits assumed): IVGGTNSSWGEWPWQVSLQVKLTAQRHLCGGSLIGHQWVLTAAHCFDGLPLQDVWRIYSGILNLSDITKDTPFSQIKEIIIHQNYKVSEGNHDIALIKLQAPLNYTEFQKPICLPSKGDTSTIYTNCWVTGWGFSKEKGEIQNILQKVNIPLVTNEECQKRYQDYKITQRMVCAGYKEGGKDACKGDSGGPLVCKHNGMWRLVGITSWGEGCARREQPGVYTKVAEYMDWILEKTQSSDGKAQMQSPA
# Procedure text: Binding affinity against serine protease plasma kallikrein
pKi: −log10 of the molar value.
Property: pKi

Noted for Cc1ccc(NS(=O)(=O)Cc2ccccc2)c(=O)n1CC(=O)NCC1CCN(C(=N)N)CC1 : its pKi reads < 4.70

---

# Test system: Prothrombin (Homo sapiens, UniProt P00734)
# Procedure text: Binding affinity against human thrombin
pKi: −log10 of the molar value.
Classify by measured pKi: 1.0 if it is equal to or exceeds 7, 0.0 if it is smaller.

Challenge: Decide: pKi of Cc1ccc(NCCc2ccccc2)c(=O)n1CC(=O)NC[C@H]1CC[C@H](N)CC1 >= 7?
Response given: 1.0

Challenge: Decide: pKi of Cc1ccc(NC(=O)CC(c2ccccc2)c2ccccc2)c(=O)n1CC(=O)NCC1CCN(C(=N)N)CC1 >= 7?
Response given: 0.0

Challenge: Decide: pKi of Cc1ccc(S(=O)(=O)Nc2ccc(C)n(CC(=O)NC[C@H]3CC[C@H](N)CC3)c2=O)cc1 >= 7?
Response given: 1.0

Challenge: Decide: pKi of Cc1ccc(NC(=O)c2ccccc2)c(=O)n1CC(=O)NCC1CCN(C(=N)N)CC1 >= 7?
Response given: 0.0

Challenge: Decide: pKi of Cc1ccc(S(=O)(=O)Nc2ccc(C)n(CC(=O)NCC3CCN(C(=N)N)CC3)c2=O)cc1 >= 7?
Response given: 1.0
